assay: Tmax in Sprague-Dawley rat at 10 mg/kg administered as single dose via oral gavage by LC-MS/MS analysis; type: ADME, organism-based; details: in vivo
Recorded Tmax values for a group of compounds are listed next.
Give just the numeric value; h need not be written.

Cl.N[C@@H]1CCC=C(c2ccc(F)cc2)[C@H]1CNc1cc(F)c(S(=O)(=O)Nc2cscn2)cc1Cl 2.67

Look at this compound and give its reported Tmax. CCN[C@@H]1CCC=C(c2ccc(F)cc2)[C@H]1COc1cc(F)c(S(=O)(=O)Nc2cscn2)cc1Cl.Cl 1.67

----------
The reader will find pIC50 measurements below, all made with Cytochrome P450 2D6 (Homo sapiens).
Sequence (P10635 whole entry): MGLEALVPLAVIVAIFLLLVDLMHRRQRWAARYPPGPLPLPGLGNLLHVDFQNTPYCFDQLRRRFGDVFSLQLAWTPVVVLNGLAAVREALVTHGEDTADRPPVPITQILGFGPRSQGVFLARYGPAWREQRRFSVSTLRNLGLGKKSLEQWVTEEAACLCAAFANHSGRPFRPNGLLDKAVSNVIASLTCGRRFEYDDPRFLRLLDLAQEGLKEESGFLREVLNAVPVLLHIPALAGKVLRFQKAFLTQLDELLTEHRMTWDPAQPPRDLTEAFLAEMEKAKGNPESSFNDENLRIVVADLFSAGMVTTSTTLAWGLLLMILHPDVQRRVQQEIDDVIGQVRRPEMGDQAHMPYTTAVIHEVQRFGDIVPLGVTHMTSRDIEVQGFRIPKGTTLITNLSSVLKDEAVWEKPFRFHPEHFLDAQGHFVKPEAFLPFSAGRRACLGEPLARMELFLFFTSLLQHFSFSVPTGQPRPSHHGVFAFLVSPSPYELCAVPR
Lab note — pIC50 values are minus log10 of concentrations in M.

Recorded results for 2 compounds are shown here.
COMPOUND	TARGET OF ASSAY	pIC50
Cl.N[C@@H]1CCC=C(c2ccc(F)cc2)[C@H]1CNc1cc(F)c(S(=O)(=O)Nc2nccs2)cc1Cl	Cytochrome P450 2D6 (Homo sapiens)	4.37
Cl.N[C@@H]1CCC=C(c2ccc(F)cc2)[C@H]1COc1cc(F)c(S(=O)(=O)Nc2nccs2)cc1Cl (racemic)	Cytochrome P450 2D6 (Homo sapiens)	4.74

Moving on to another compound below.
Look at this compound and give its reported pIC50. Cl.N[C@@H]1CCC=C(c2ccc(F)cc2)[C@H]1CSc1cc(F)c(S(=O)(=O)Nc2nccs2)cc1Cl 4.74

Data origin, for the record: ChEMBL document CHEMBL4177611
